experimental-target: GIP-R (Homo sapiens, UniProt P48546)
Construct: host or cells: CHO-K1 (cAMP Hunter)
Sequence (P48546 22-466): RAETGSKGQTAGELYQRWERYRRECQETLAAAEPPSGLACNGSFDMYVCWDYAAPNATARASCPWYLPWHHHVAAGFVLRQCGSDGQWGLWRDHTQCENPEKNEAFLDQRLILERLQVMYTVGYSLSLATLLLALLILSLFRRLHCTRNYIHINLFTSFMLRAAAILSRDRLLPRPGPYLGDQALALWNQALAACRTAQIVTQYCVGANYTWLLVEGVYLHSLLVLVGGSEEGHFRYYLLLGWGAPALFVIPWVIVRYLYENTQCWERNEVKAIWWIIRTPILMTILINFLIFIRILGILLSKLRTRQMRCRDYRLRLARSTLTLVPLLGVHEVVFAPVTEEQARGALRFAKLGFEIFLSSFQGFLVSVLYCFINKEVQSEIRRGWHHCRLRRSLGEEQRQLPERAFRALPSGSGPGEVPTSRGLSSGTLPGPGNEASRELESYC
assay-explanation: Cyclic AMP (cAMP) assay, cell-suspension format, stably expressed human GIP-receptor in CHO cells
Type: cell-based
recorded-conditions: comparative table
Protocol: On the day of the experiment, the medium was removed and the cell monolayer was washed with 10 mL phosphate buffered saline (PBS) per flask. […] The flask was gently tapped and the cell suspension was pooled. […] The cell pellet was resuspended in assay buffer and cell number determined. […] The reaction was stopped by addition of lysis buffer and cAMP generated was determined using the cAMP dynamic 2 kit from Cisbio following the manufacturer's instructions. […] Data were analyzed using Excel Fit software.
Starred links: 1 amine or outer side, 2 acyl side, 3 side chain; linkers in the order of their positions; H or OH if unused. Positions of bridges follow the written chain, without caps; N, C: chain ends. Non-standard residues stand in square brackets, D forms with d. Groups on a side chain read outwards from the residue. Chains are numbered I, II in the order given. *: point of attachment. γGlu = O=C(O)[C@H](CCC(=O)[*:2])N[*:1]; Desaminotyrosyl = O=C(CCc1ccc(O)cc1)*; Palmitoyl = CCCCCCCCCCCCCCCC(=O)*; X1 = O=C(C[*:1])[*:2]; Aib = CC(C)(N)C(=O)O
// reported human GIP-R % max GIP for each item listed

| substance | human GIP-R % max GIP |
| --- | --- |
| I: H-Y[Aib]EGTFTSDK([γGlu-γGlu-Palmitoyl])SIYLDKQAA[Aib]EFVNWLLAGGPSSGAPPPSC-NH2 / II: GGGLPETGGSGS-OH (linker I:40-II:N via X1) [compound 9] | 100% |
| I: Ac-[dY]ALGTFTSDK([γGlu-Palmitoyl])SKYLDERAAQDFVQWLLEGGPSSGAPPPSC-NH2 / II: GGGLPETGGSGS-OH (linker I:40-II:N via X1) [compound 12] | 90% |
| I: Ac-[dY]AVGTFTSDK([γGlu-Palmitoyl])SKYLDERAAQDFVQWLLEGGPSSGAPPPSC-NH2 / II: GGGLPETGGSGS-OH (linker I:40-II:N via X1) [compound 13] | 91% |
| I: H-Y[Aib]EGTFTSDK([γGlu-γGlu-Palmitoyl])SIYLDKQAA[Aib]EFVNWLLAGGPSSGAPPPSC-NH2 / II: LPETGGSGS-OH (linker I:40-II:N via X1) [compound 10] | 97% |
| I: Desaminotyrosyl-AEGTFTSDK([γGlu-Palmitoyl])SKYLDERAAQDFVQWLLEGGPSSGAPPPSC-NH2 / II: GGGLPETGGSGS-OH (linker I:39-II:N via X1) [compound 11] | 83% |

Reference source: patent US10137170B2
